# ASSAY_INFO: self-splicing fitness, log relative to wild type (ln ratio); higher = more splicing; Tetrahymena group I intron in knt gene, E. coli kanamycin selection, DiMSum; sequences stand for … in CUCUCU…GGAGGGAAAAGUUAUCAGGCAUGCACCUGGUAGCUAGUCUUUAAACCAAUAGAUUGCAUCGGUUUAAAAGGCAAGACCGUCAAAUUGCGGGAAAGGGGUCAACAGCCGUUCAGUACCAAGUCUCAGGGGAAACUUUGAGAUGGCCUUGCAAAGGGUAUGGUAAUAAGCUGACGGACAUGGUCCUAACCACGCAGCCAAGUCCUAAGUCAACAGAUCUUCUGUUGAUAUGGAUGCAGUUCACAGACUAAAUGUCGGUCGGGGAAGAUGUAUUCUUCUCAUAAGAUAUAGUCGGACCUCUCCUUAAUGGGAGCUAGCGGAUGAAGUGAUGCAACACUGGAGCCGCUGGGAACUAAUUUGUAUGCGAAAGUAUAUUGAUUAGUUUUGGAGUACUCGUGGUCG;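 also: selection with 25 µg/mL kanamycin versus none on LB agar overnight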
# ASSAY_CONDITIONS: 37 °C
Returns 1 if the recorded self-splicing fitness (ln) is greater than or equal to -2, and 0 otherwise.

RESIDUE_STRING	ASSIGNED_CATEGORY
UUCAAGCAAUAUUACGUACC	1

Answer whether self-splicing fitness (ln) of AGUUAGCAAUAUUACGCGAG is greater than or equal to -2.
1

Answer whether self-splicing fitness (ln) of CAACAGCAAUAUUACGGAAU is greater than or equal to -2.
0

Answer whether self-splicing fitness (ln) of CACAAGCAAUAUUACGUAAG is greater than or equal to -2.
1

Answer whether self-splicing fitness (ln) of CUUCAGCAAUAUUACGGUAG is greater than or equal to -2.
1
